I'd be grateful if you could share measured Papp A→B at 120 min, 5 μM for these entries.
system: MDR1 (P-gp); test: Blood-brain-barrier (BBB) penetration potential via MDCK-MDR1 permeability assay; conditions: dog, MDCK-MDR1, pH 7.4, MDCK-MDR1: Papp A-B, A-B direction
Numbers only, in ×10⁻⁶ cm/s.

Hello, I would appreciate it if you could give Papp A→B at 120 min, 5 μM for each entry below.
1. CN(c1ccc(-c2cc3ncccc3cc2O)nn1)[C@H]1C[C@@H]2CC(F)(F)[C@H](C1)N2 [Compound 46B]
2. CN(C)C(=O)c1cc2cc(O)c(-c3ccc(N(C)[C@H]4C[C@@H]5CC[C@@H](N5)[C@H]4F)nn3)cc2o1 [Compound 9B]
3. CN(c1ccc(-c2ccc(-n3ccnc3)cc2O)nn1)[C@H]1C[C@@H]2CC[C@@H](N2)[C@H]1F [Compound 4B]
4. CN(c1ccc(-c2cc3ccn(C)c(=O)c3cc2O)nn1)[C@@H]1C[C@H]2CC[C@H](N2)[C@@H]1F [Compound 84A]
5. CN(c1ccc(-c2cc3ncccc3cc2O)nn1)[C@@H]1C[C@H]2CC[C@H](N2)[C@@H]1F [Compound 73A]
6. CN(c1ccc(-c2cc3cccnc3cc2O)nn1)[C@@H]1C[C@H]2CC[C@H](N2)[C@@H]1F [Compound 74A]
7. CN(c1ccc(-c2ccc(-c3nnco3)cc2O)nn1)[C@@H]1C[C@H]2CC[C@H](N2)[C@@H]1F [Compound 44A]

A.
1. 32
2. 0.62
3. 2.82
4. 0.9
5. 2.92
6. 3.13
7. 8.12

====

system: MDR1 (P-gp); test: Blood-brain-barrier (BBB) penetration potential via MDCK-MDR1 permeability assay; settings: dog, MDCK-MDR1, pH 7.4, MDCK-MDR1: Papp A-B, A-B direction
Criterion: Papp A→B at 120 min, 5 μM strictly less than 3 ×10⁻⁶ cm/s. Met: Criterion met. Not met: Criterion not met.

// below: answered compounds
[
  {
    "compound": "Cc1ccc(-c2ccc(-c3ccc(N(C)[C@@H]4C[C@H]5CCC[C@H](N5)[C@@H]4F)nn3)c(O)c2)nn1 [Compound 27A]",
    "qualitative_label": "Criterion met"
  },
  {
    "compound": "CN(c1ccc(-c2ccc(-c3cnn(C)c3)cc2O)nn1)[C@H]1C[C@H]2CC(F)(F)[C@H](C1)N2 (single isomer, unassigned)",
    "qualitative_label": "Criterion not met"
  },
  {
    "compound": "C#Cc1ccc(-c2ccc(N(C)[C@@H]3C[C@H]4CC[C@H](N4)[C@@H]3F)nn2)c(O)c1 [Compound 10A]",
    "qualitative_label": "Criterion not met"
  },
  {
    "compound": "Cc1ccc(-c2ccc(-c3ccc(N(C)[C@H]4C[C@@H]5CCC[C@@H](N5)[C@H]4F)nn3)c(O)c2)nn1 [Compound 27B]",
    "qualitative_label": "Criterion met"
  },
  {
    "compound": "CN(c1ccc(-c2cc3cncnc3cc2O)nn1)[C@@H]1C[C@H]2CC[C@H](N2)[C@@H]1F [Compound 75A]",
    "qualitative_label": "Criterion met"
  },
  {
    "compound": "CN(c1ccc(-c2cc3occc(=O)c3cc2O)nn1)[C@H]1C[C@@H]2CC[C@@H](N2)[C@H]1F [Compound 43B]",
    "qualitative_label": "Criterion met"
  },
  {
    "compound": "Cc1cc(=O)c2cc(-c3ccc(N(C)[C@H]4C[C@@H]5CC[C@@H](N5)[C@H]4F)nn3)c(O)cc2o1 [Compound 50B]",
    "qualitative_label": "Criterion met"
  },
  {
    "compound": "CN(c1ccc(-c2cc3oc(=O)n(C)c3cc2O)nn1)[C@H]1C[C@@H]2CC[C@@H](N2)[C@H]1F (single isomer, unassigned) [Compound 79B]",
    "qualitative_label": "Criterion met"
  }
]

Q. Problem: For the compound CN(c1ccc(-c2ccc(C#N)cc2O)nn1)[C@H]1C[C@@H]2CC[C@@H](N2)[C@H]1F [Compound 38B] , is Papp A→B at 120 min, 5 μM under 3 ×10⁻⁶ cm/s?
A. Criterion not met

Q. // same read-out, input: CN(c1ccc(-c2cc3c(=O)n(C)cnc3cc2O)nn1)[C@H]1C[C@@H]2CC[C@@H](N2)[C@H]1F [Compound 85B]
A. Criterion met

Q. Consider next the compound Cc1cc(=O)c2cc(-c3ccc(N(C)[C@@H]4C[C@H]5CC[C@H](N5)[C@@H]4F)nn3)c(O)cc2o1 [Compound 50A] in the same way.
A. Criterion met

Q. Thanks! And CN(c1ccc(-c2cc3ncn(CC(F)(F)F)c(=O)c3cc2O)nn1)[C@H]1C[C@@H]2CCC[C@@H](N2)[C@H]1F [Compound 58B] ?
A. Criterion met

Q. And what about the compound "CN(c1ccc(-c2ccc(-c3cnn(C)c3)cc2O)nn1)[C@@H]1C[C@H]2CC(F)(F)[C@@H](C1)N2" ?
A. Criterion not met

Q. Further, for CN(c1ccc(-c2cc3c(=O)n(C)cnc3cc2O)nn1)[C@@H]1C[C@H]2CC[C@H](N2)[C@@H]1F [Compound 85A] ?
A. Criterion met

Q. Now give it for "CN(c1ccc(-c2ccc(-n3ccnc3)cc2O)nn1)[C@@H]1C[C@H]2CC[C@H](N2)[C@@H]1F" too.
A. Criterion met
